- System Name: human ACC2 (Nd) (Homo sapiens, UniProt O00763)
- Construct: His6 (from vector pFAST-BacHTa); made in house; host or cells: SF-9 insect cells, recombinant baculovirus BAC-ACC2 (Nd)
- Sequence (O00763 117-2458 limits assumed): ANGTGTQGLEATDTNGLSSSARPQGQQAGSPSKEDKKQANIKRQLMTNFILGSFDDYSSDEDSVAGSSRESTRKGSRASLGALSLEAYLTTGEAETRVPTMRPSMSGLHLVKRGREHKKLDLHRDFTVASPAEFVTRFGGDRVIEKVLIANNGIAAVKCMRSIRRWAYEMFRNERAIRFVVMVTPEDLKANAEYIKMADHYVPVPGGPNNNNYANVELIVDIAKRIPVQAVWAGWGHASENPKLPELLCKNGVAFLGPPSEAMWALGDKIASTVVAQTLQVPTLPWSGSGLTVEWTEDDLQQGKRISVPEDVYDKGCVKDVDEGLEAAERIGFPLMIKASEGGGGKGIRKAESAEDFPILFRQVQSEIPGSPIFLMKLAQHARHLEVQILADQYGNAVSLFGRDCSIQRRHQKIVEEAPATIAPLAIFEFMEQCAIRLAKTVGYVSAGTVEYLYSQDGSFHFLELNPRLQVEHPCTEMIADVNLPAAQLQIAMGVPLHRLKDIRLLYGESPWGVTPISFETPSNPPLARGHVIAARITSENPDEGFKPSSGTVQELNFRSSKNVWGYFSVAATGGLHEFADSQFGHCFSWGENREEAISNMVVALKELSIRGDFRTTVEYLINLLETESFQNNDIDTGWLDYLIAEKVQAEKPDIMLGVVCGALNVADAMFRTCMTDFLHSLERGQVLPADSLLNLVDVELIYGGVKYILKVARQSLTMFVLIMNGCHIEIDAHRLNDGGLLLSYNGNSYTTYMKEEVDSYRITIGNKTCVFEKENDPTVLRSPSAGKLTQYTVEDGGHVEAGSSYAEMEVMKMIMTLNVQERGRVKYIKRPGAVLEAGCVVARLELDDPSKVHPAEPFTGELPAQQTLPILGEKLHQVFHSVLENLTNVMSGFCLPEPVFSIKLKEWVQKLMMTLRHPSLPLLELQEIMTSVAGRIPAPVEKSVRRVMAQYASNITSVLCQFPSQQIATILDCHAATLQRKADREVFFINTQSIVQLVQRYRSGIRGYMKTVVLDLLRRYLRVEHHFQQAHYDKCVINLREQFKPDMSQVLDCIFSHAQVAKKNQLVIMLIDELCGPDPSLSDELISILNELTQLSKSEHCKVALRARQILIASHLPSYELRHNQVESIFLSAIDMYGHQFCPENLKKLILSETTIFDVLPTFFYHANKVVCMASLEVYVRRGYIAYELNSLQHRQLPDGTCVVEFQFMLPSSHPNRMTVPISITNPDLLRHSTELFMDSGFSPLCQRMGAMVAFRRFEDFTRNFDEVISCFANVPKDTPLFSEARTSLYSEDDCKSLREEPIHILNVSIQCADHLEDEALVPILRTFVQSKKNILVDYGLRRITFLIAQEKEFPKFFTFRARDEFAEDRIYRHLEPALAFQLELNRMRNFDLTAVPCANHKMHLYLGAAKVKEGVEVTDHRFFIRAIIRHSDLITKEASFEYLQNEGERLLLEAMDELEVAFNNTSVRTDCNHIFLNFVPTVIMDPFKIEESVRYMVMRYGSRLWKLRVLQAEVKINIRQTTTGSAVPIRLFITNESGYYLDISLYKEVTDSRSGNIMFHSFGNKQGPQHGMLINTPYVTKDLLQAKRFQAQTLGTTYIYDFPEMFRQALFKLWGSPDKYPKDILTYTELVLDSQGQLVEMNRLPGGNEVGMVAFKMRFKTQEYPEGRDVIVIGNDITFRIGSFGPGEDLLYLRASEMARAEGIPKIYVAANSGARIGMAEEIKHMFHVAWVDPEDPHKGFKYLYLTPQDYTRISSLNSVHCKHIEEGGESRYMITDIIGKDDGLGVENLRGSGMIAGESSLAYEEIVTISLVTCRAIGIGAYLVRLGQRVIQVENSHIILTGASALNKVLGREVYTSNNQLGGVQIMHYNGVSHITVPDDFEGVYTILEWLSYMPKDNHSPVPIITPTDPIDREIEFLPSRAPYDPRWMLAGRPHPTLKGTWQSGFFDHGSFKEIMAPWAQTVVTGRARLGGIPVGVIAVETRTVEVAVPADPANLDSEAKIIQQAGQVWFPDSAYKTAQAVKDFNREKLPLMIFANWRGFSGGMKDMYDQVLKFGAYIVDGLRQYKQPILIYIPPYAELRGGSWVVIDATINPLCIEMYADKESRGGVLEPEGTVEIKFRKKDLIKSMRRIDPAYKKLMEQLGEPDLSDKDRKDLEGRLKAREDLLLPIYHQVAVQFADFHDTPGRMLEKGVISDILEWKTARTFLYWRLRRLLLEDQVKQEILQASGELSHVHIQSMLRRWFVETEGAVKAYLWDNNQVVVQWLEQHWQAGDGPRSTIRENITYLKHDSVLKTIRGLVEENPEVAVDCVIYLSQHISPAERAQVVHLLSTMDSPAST
- Test Details: ACC2 inhibitory activity (malachite green)
- Format: biochemical
- Condition: test compound 10 μM; read-out: ACC2 10 μM inhibitory rate (%)
Readout: inhibition at 10 µM (%)
# output: bare number, implied unit %

[
  {
    "Compound": "CSCCOc1ccc(CCc2ccc3cc(C(C)NC(C)=O)oc3c2)cc1 (stereo not drawn)",
    "inhibition at 10 µM (%)": 75
  },
  {
    "Compound": "CCOc1ccc(COc2ccc3cc(C(C)NC(C)=O)sc3c2)cc1 (stereo not drawn)",
    "inhibition at 10 µM (%)": 78
  },
  {
    "Compound": "CC(=O)NC(C)c1cc2ccc(C#Cc3ccc(OCC4CC4)nc3)cc2o1 (stereo not drawn)",
    "inhibition at 10 µM (%)": 70
  },
  {
    "Compound": "CC(=O)N[C@@H](C)[C@@H]1Cc2ccc(OCc3ccc(OCC4CC4)nc3F)cc2O1",
    "inhibition at 10 µM (%)": 73
  },
  {
    "Compound": "CC(=O)NC(C)c1cc2cc(OCc3ccc(OCC4CC4)cc3F)ccc2o1 (stereo not drawn)",
    "inhibition at 10 µM (%)": 78
  }
]

Find the measured inhibition at 10 µM of CCCCOc1ccc(CCc2ccc3cc(C(C)NC(C)=O)oc3c2)cc1 (stereo not drawn) and report it.
78

Find the measured inhibition at 10 µM of CC(=O)NC(C)c1cc2ccc(CCc3ccc(OC4CCCC4)cc3)cc2o1 (stereo not drawn) and report it.
84

Find the measured inhibition at 10 µM of CC(=O)NC(C)c1cc2cc(OCc3ccc(OCC4CC4)nc3F)ccc2o1 (stereo not drawn) and report it.
70

Find the measured inhibition at 10 µM of CCOc1ccc(COc2ccc3sc(C(C)NC(C)=O)cc3c2)cc1 (stereo not drawn) and report it.
80

Find the measured inhibition at 10 µM of CCOc1ccc(COc2ccc3oc(C(C)NC(C)=O)nc3c2)cc1 (stereo not drawn) and report it.
76

====

- System Name: human ACC1 (Homo sapiens, UniProt Q13085)
- Construct: His6 (from vector pFAST-BacHTc); made in house; host or cells: SF-9 insect cells, recombinant baculovirus BAC-ACC1
- Test Details: ACC1 inhibitory activity (malachite green)
- Format: biochemical
- Condition: test compound 10 μM; read-out: ACC1 10 μM inhibitory rate (%)
Readout: inhibition at 10 µM (%)
# output: bare number, implied unit %

[
  {
    "Compound": "CCOc1ccc(CCc2cnc3cc([C@H](C)NC(C)=O)oc3c2)cc1 [Example 107]",
    "Units Text": "%",
    "Result Number": 12
  }
]

Give measured inhibition at 10 µM for CC(=O)NC(C)c1cc2ccc(CCc3ccc4c(c3)CCO4)cc2o1 (centres unmarked) [Example 94] (human ACC1 (Homo sapiens, UniProt Q13085)).
19

Give measured inhibition at 10 µM for CCOc1ccc(COc2ccc3cc(C(C)NC(C)=O)oc3c2)cc1Br (centres unmarked) [Example 175] (human ACC1 (Homo sapiens, UniProt Q13085)).
15

Give measured inhibition at 10 µM for CC(=O)NC(C)c1cc2ccc(CCc3ccc(OCCC4CC4)cc3)cc2o1 (centres unmarked) [Example 174] (human ACC1 (Homo sapiens, UniProt Q13085)).
34

Give measured inhibition at 10 µM for CC(=O)N[C@H](C)[C@H]1Cc2ccc(CCc3ccc(OCC4CC4)cc3)cc2O1 (racemic) [Example 121] (human ACC1 (Homo sapiens, UniProt Q13085)).
35

Give measured inhibition at 10 µM for CC(=O)NC(C)c1cc2ccc(C#Cc3ccc(OCC4CC4)nc3)cc2o1 (centres unmarked) [Example 138] (human ACC1 (Homo sapiens, UniProt Q13085)).
22

Give measured inhibition at 10 µM for CC(=O)N[C@@H](C)[C@@H]1Cc2ccc(OCc3cnc(OCC4CC4)cc3F)cc2O1 [Example 142] (human ACC1 (Homo sapiens, UniProt Q13085)).
42

Give measured inhibition at 10 µM for CC(=O)NC(C)c1cc2cc(OCc3ccc(OCC4CC4)cc3Cl)ccc2o1 (centres unmarked) [Example 134 (retention time longer)] (human ACC1 (Homo sapiens, UniProt Q13085)).
33
